- Tested on: MS2 coat protein
- Test description: apparent KD of MS2 coat protein, switch ON state; designed switch direction (-1 OFF switch, 1 ON switch): 1; higher = weaker reporter binding
- Study conditions: FMN input: 0 or 200 uM; Eterna round: R93 (includes R88 designs)
Threshold check on apparent KD of MS2 coat protein: at or above 30 nM gives Yes, strictly below gives No.

Reference set, count: 4
[[record]]
item_sequence = "GAAGAACAUGAGGAUCACCCAUGUGUAGAAGCAUGAGGAUAUGUAAGUCAAAGAAAAACGAUAGAAGGCAUGGAGA [JR_SS001_Sub1714]"
assigned_category = "Yes"

[[record]]
item_sequence = "GUCCAACAUGAGGAUCACCCAUGUGCAUGACACCGAGGAUAUGGGACUAAAGGUGCUGGACCAGAAGGCGGAAGAA [Laceus]"
assigned_category = "No"

[[record]]
item_sequence = "AAUAUAUUAAGCGAGGAUAUCGAGGAAAAAACAUGAGGAUCACCCAUGUGGGUAAAAAAAAAAAGUGAGAAGGUGCUUAAUAUAU [Samwise Clockwise 9 - Jieux - Same State 2]"
assigned_category = "Yes"

[[record]]
item_sequence = "AACAAUCUAUCUGAGGAUAUGUGUCGAAAGACAUGAGGAUCACCCAUGUGAAAACAUGGGAAAACACAGAAGGCAGAUAGAUUGA [SS2: 1152]"
assigned_category = "Yes"


Req: Check if apparent KD of MS2 coat protein >= 30 nM (inclusive). Item: CUCAGGAAGAGAGAGGAUAUCCAAAGGAAAACAUGAGGAUCACCCAUGUAAAAGGUAGGAAAUUGGGAGAAGGCUCAAGAGAGAG [salish99-ss2-096]
Resp: No

Req: Check if apparent KD of MS2 coat protein >= 30 nM (inclusive). Item: GAAAAACAUGAGGAUCACCCAUGUCAAUAUAUGGGAGGAUAUACAAAGACGAAAGUCAAAGUAGAAGGCCUAAAAG
Resp: No

----------
- System: MS2 coat protein
- Test description: apparent KD of MS2 coat protein; designed switch direction (-1 OFF switch, 1 ON switch): -1; higher = weaker reporter binding
- Study conditions: input ligand: microRNA oligo, concentration not stated
Measured metric: apparent KD of MS2 coat protein (nM)
Return type: number; implicit unit nM.

[[record]]
item_sequence = "AGAUAGUGGUGAGGAUAUCAGAAUAGAAAGAAAUGAGAAGGCACACAUGAGGAUCACCCAUGUGAGGUCUUGAGACUACAUGGU [Prohibition 40 - Jieux - Exclusion NG 1] (Eterna round: R96, puzzle: Exclusion NG 1)"
reported_result = 12.5


// recorded apparent KD of MS2 coat protein for AAUUAUUAUUGAGGAUAUCGUAGUGAAACACUACGAGAAGGCGGUAUAAACAUGAGGAUCACCCAUGUGAGCCUGAUGCUUAUG [Ex NG1 #44] (Eterna round: R96, puzzle: Exclusion NG 1) : 20.6

// recorded apparent KD of MS2 coat protein for UGAUCUAGCGGAGGAUAUACAUGAGGAUCACCCAUGUAGAUAACAUGACCGUAGUCGUGUAACGUGUAGAAGGCCGCUAGAUCU [JL ENG2 3.68] (Eterna round: R96, puzzle: Exclusion NG 2) : 17

// recorded apparent KD of MS2 coat protein for ACGAUGAUCGAAAAGUGUAAACUGACAUGAGGAUCACCCAUGUAGGAUAUGGCUACGAAAAGUAGUCAGAAGGGCAUGUCAUCA [Omei Exc(NG) 3 Av11] (Eterna round: R96, puzzle: Exclusion NG 3) : 34.6

// recorded apparent KD of MS2 coat protein for GGUCGUAUGAGUAGUCCUCAUUGAAGAGAUUGGUAAGAUACAUGAGGAUCACCCAUGUUUGAACAAGCUUUUGCUCU [JR_Sv3TOV2_Sub008] (Eterna round: R96, puzzle: Sensor v3, turn-off variant 2) : 54.3

----------
- Test system: MS2 coat protein
- Test description: apparent KD of MS2 coat protein; designed switch direction (-1 OFF switch, 1 ON switch): 1; higher = weaker reporter binding
- Study conditions: Eterna round: R95; input ligand: microRNA oligo, concentration not stated
Measured metric: apparent KD of MS2 coat protein (nM)
Return type: number; implicit unit nM.

Known apparent KD of MS2 coat protein results, listed for orientation:
[[record]]
item_sequence = "AACAAUCUAUCUGAGGAUAUCAUGAAAAAAACAUGAGGAUCACCCAUGUGCAGGAAAACUGCAUAUGAGAAGGCAGAUAGAUUGA [salish99_SS2_r3_001] (puzzle: Same State 2)"
measured_metric = "apparent KD of MS2 coat protein"
value_unit = "nM"
reported_result = 484

[[record]]
item_sequence = "CUCAAACAUGAGGAUCACCCAUGUGUUGUCAUGGGAGGAUAUCUAAGUUCGUUGUAUUCGGGAGAAGGCCUAUGUC [× ×•×ª×• ×ž×“×™× ×” × ×—×ª-10] (puzzle: Same State 1)"
measured_metric = "apparent KD of MS2 coat protein"
value_unit = "nM"
reported_result = 199

[[record]]
item_sequence = "ACGUCGAGAUCACAGGAUAUACUCACAUCUACAUGAGGAUCACCCAUGUAGCGGUAUUCCGGUGCGUAGAAGGGUGAUCGACGAC [Same State 2 - Mod of Artece v.5] (puzzle: Same State 2)"
measured_metric = "apparent KD of MS2 coat protein"
value_unit = "nM"
reported_result = 9.7

[[record]]
item_sequence = "GAUUCACAUGAGGAUCACCCAUGUCGUUUAAUGGGAGGAUAUACGUGGACCGUAGUCCGCGUAGAAGGCCUAAUUG [Mat - Same State 1 - Mod of JL - D24] (puzzle: Same State 1)"
measured_metric = "apparent KD of MS2 coat protein"
value_unit = "nM"
reported_result = 74.4

[[record]]
item_sequence = "AAACUACGUGCACAGGAUAUACGUUCCUAUACAUGAGGAUCACCCAUGUACCAACCGAAAAGGAAGUAGAAGGGUGUCCGUAAAC [Esardixequ] (puzzle: Same State 2)"
measured_metric = "apparent KD of MS2 coat protein"
value_unit = "nM"
reported_result = 51.6


// recorded apparent KD of MS2 coat protein for AGUGGAGCCUGAGCUCCACAAAAGCAUGUACAUGAGGAUCACCCAUGUCAUGUACAAGCUUUUUGCUCGUCUUAAAA [Mat - hsa-mir-208a - Mod of JL - D18] (puzzle: Sensor for hsa-mir-208a) : 18.8

// recorded apparent KD of MS2 coat protein for UCUUGGUUUUUGCUCGUUUUUUGUGUUGAACAUGAGGAUCACCCAUGUAUUGUACAGUCCAAUUUGAUAAUGGUCCG [JMF 54] (puzzle: Sensor for hsa-mir-208a) : 32.3

----------
- System: K4 kissing-loop RNA reporter;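 also: bound reporter read as fluorescence of individual clusters on recovered sequencing chips by microscopy, with normalized cluster intensities fitted with a binding model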
- Test description: apparent KD of K4 kissing-loop reporter; higher = weaker reporter binding
- Study conditions: Eterna round: R107; input ligand: FMN 200 uM
Threshold check on apparent KD of K4 kissing-loop reporter: at or above 200 nM gives MET, strictly below gives NOT MET.

Reference set, count: 4
[[record]]
item_sequence = "AGUGUACAGUCGGCCGCCACUCACUCCUCCUGCGUUAACGAGUGAUGUUUGUUUUUUAGUGGUACGAGGACCGGGACUUCUCUGA [theeternabot_sameState_KL_Trp_B_35]"
assigned_category = "MET"

[[record]]
item_sequence = "UAAAUAAUAAAACGAGUGAUGUUCGACGAUACCAGCCUCGAUAGAGGCCCUUGGCAGCGUAAAUGAUCACAAAGCCAAGGUAUAA [#01 K4 Theophylline A Exclusion]"
assigned_category = "NOT MET"

[[record]]
item_sequence = "CCUAUCUCAUACGAUACCAGUCAAUUAAAACGAGUGAUGUUCGAAAAUUUGCCAUAUAAUGACCCUUGGCAGCGUAUGGGAUAGG [Ex Theophylline B K4 7]"
assigned_category = "NOT MET"

[[record]]
item_sequence = "AGACUUCACCGAAGGAGCGACGUGGCCUAGUGAUGUUAGGCACGAGAGAAAUCUCGUGUACGUCAGGUAGGUCGCGGUGAAGUCA [Omei KL Arginine B SS C v7]"
assigned_category = "MET"


Now turn to the next sequence.
Req: Check if apparent KD of K4 kissing-loop reporter >= 200 nM (inclusive). Item: GGGCAAGUGAGUGAUGUUCGAUGAUGCUUAAAGGAUAUGUAGGAAUACAGAAGGUUAUAUUCCCUGACAUUAGAUCUUUACAGGG [theeternabot_exclusion_KL_FMN_A_44]
Resp: NOT MET

----------
- Tested on: MS2 coat protein
- Test description: apparent KD of MS2 coat protein; designed switch direction (-1 OFF switch, 1 ON switch): 1; higher = weaker reporter binding
- Study conditions: input ligand: none
Measured metric: apparent KD of MS2 coat protein (nM)
Return type: number; implicit unit nM.

Known apparent KD of MS2 coat protein results, listed for orientation:
[[record]]
item_sequence = "GUGGAGGAUUAAGGAUAUUGAAUACAUAUGUUUAACAUGAGGAUCACCCAUGUGGGUUGCGGUAUCGAGAAGGUAAAUUACUGG [salish99_SSNG2_r04_034] (Eterna round: R96, puzzle: Same State NG 2)"
value_unit = "nM"
reported_result = 117

[[record]]
item_sequence = "CGUCGUUUGAUAGGAUAUCGCUUUACAUGAGGAUCACCCAUGUUUCCCACGCUGGUUUUUCUUUCCGAGAAGGAUUCUGAUGUU [salish99_SSNG02_r04_029] (Eterna round: R96, puzzle: Same State NG 2)"
value_unit = "nM"
reported_result = 40.6

[[record]]
item_sequence = "GUAAAGAAAUAAGGAUAUUGAAUACAUAUGUUUAACAUGAGGAUCACCCAUGUGGGUUGCGGUAUCGAGAAGGUAUAAUAAAAG [Mat - Same State NG 2 - JL mod - D8] (Eterna round: R96, puzzle: Same State NG 2)"
value_unit = "nM"
reported_result = 168

[[record]]
item_sequence = "CGGCUCCGUGGAGGAUAUGGGCCUGCCCGGGAUACCGGGCCUAACACAUGAGGAUCACCCAUGUCCCAGAAGGCCGCUGGAGCC [Cebeladi] (Eterna round: R96, puzzle: Same State NG 2)"
value_unit = "nM"
reported_result = 52.3

[[record]]
item_sequence = "AGCUAUUAAUCAGGAUAUAGUGACAUGAGGAUCACCCAUGUAUUAAUGAUGAAAUGUGGUCGCCGCUAGAAGGGAUUACUAACA [SameState NG2 #44] (Eterna round: R96, puzzle: Same State NG 2)"
value_unit = "nM"
reported_result = 30.1


// recorded apparent KD of MS2 coat protein for GCCAUCGAGUGAGGAUAUGGCACCGUUUCGGUGCCAGAAGGCAUGUCAAUUGACAUGAGGAUCACCCAUGUAUUAUCGAUGGCA [JL Fiskers NG1ss - 33 mod 4] (Eterna round: R96, puzzle: Same State NG 1) : 835

// recorded apparent KD of MS2 coat protein for UGACACACGGCAGGAUAUCGUUAGCAAAGCUAACGAGAAGGGCCUCAUGUCGUGGAAACGUGACAUGAGGAUCACCCAUGUUGC [Omei SS(NG)1 Cv10] (Eterna round: R96, puzzle: Same State NG 1) : 53.7

// recorded apparent KD of MS2 coat protein for UAAGUCAUGUAAGGAUAUGCAGCCGAAACGGCUGCAGAAGGUACUAUAAUUACAUGAGGAUCACCCAUGUUAUAAAAUUUAAAU [Mat - Same State NG 1 - JL mod - D78] (Eterna round: R96, puzzle: Same State NG 1) : 60.7

// recorded apparent KD of MS2 coat protein for CGCCAGAGAGCAGGAUAUGGGCCACAGCCUAAGGGCUGUGAACUCACAUGAGGAUCACCCAUGUCCCAGAAGGGCUCCUAGCUA [Erzabe] (Eterna round: R96, puzzle: Same State NG 2) : 1920
